Tested on: Pseudomonas aeruginosa
test: Antibacterial activity against Pseudomonas aeruginosa PAO1 up to 100 uM after 18 to 24 hrs by two fold serial dilution method
Assay type: functional, organism-based
Activity calls are given as the source filed them. The calls are words filed in the database; no cut-off is given here.
quantity-measured: Activity

// below: answered compounds
{"columns": ["cpd-smiles", "Activity"],
 "data": [
  ["Nc1ncnc2c1ncn2[C@@H]1O[C@H](COS(=O)(=O)NC(=O)[C@@H](N)Cc2ccc(O)cc2)[C@@H](O)[C@H]1O", "inactive"],
  ["CC(C)C[C@H](N)C(=O)NS(=O)(=O)OC[C@H]1O[C@@H](n2cnc3c(N)nccc32)[C@H](O)[C@@H]1O", "inactive"],
  ["Nc1nccc2c1ncn2[C@@H]1O[C@H](COS(=O)(=O)NC(=O)[C@@H](N)CO)[C@@H](O)[C@H]1O", "inactive"],
  ["CC(C)C[C@H](N)C(=O)NS(=O)(=O)OC[C@H]1O[C@@H](n2cnc3c(N)ncnc32)[C@H](O)[C@@H]1O", "inactive"],
  ["Nc1nccc2c1ncn2[C@@H]1O[C@H](COS(=O)(=O)NC(=O)[C@@H](N)Cc2ccc(O)cc2)[C@@H](O)[C@H]1O", "inactive"],
  ["CC[C@H](C)[C@H](N)C(=O)NS(=O)(=O)OC[C@H]1O[C@@H](n2cnc3c(N)ncnc32)[C@H](O)[C@@H]1O", "inactive"]
]}

Assign Activity to the following record: Nc1nccc2c1ncn2[C@@H]1O[C@H](COS(=O)(=O)NC(=O)[C@@H](N)CC(=O)O)[C@@H](O)[C@H]1O
inactive

Name the recorded Activity of the compound listed here: NCC(=O)NS(=O)(=O)OC[C@H]1O[C@@H](n2cnc3c(N)ncnc32)[C@H](O)[C@@H]1O
inactive

Name the recorded Activity of the item NCC(=O)NS(=O)(=O)OC[C@H]1O[C@@H](n2cnc3c(N)nccc32)[C@H](O)[C@@H]1O in your answer.
inactive

Give the measured Activity for Nc1ncnc2c1ncn2[C@@H]1O[C@H](COS(=O)(=O)NC(=O)[C@@H](N)CO)[C@@H](O)[C@H]1O
inactive

Annotate the compound CC[C@H](C)[C@H](N)C(=O)NS(=O)(=O)OC[C@H]1O[C@@H](n2cnc3c(N)nccc32)[C@H](O)[C@@H]1O with its measured Activity.
inactive

Report Activity, nothing else, for this compound: Nc1ncnc2c1ncn2[C@@H]1O[C@H](COS(=O)(=O)NC(=O)[C@@H](N)CC(=O)O)[C@@H](O)[C@H]1O
inactive

====

target: Tyrosine--tRNA ligase (Escherichia coli (strain K12))
Sequence (P0AGJ9 whole entry): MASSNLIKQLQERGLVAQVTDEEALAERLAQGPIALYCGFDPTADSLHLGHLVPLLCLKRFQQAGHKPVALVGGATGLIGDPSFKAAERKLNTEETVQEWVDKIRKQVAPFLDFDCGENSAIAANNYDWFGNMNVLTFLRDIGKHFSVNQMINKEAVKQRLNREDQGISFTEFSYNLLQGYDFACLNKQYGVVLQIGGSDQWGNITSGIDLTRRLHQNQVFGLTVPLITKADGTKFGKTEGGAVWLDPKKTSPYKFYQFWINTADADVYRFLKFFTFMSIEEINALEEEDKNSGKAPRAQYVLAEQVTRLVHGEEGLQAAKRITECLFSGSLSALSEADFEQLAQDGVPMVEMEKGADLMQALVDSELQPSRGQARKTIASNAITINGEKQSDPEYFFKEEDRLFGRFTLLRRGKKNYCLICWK
test: Inhibition of Escherichia coli BL21(DE3) Tyrosyl-tRNA synthetase assessed as reduction in tRNA aminoacylation preincubated for 10 mins with Escherichia coli tRNA and 14C-labeled tyrosine followed by ATP addition by liquid scintillation counting method
particulars: read-out: Ki(app)
Please respond with reported Ki for every item in the list.
Give the number; nM is assumed, so skip it.

State its Ki for this molecule: Nc1ncnc2c1ncn2[C@@H]1O[C@H](COS(=O)(=O)NC(=O)[C@@H](N)Cc2ccc(O)cc2)[C@@H](O)[C@H]1O
2.93

Please look at this molecule and report its Ki: Nc1nccc2c1ncn2[C@@H]1O[C@H](COS(=O)(=O)NC(=O)[C@@H](N)Cc2ccc(O)cc2)[C@@H](O)[C@H]1O
29.9

====

target: Leucine--tRNA ligase (Escherichia coli (strain K12), UniProt P07813)
Sequence (P07813 whole entry): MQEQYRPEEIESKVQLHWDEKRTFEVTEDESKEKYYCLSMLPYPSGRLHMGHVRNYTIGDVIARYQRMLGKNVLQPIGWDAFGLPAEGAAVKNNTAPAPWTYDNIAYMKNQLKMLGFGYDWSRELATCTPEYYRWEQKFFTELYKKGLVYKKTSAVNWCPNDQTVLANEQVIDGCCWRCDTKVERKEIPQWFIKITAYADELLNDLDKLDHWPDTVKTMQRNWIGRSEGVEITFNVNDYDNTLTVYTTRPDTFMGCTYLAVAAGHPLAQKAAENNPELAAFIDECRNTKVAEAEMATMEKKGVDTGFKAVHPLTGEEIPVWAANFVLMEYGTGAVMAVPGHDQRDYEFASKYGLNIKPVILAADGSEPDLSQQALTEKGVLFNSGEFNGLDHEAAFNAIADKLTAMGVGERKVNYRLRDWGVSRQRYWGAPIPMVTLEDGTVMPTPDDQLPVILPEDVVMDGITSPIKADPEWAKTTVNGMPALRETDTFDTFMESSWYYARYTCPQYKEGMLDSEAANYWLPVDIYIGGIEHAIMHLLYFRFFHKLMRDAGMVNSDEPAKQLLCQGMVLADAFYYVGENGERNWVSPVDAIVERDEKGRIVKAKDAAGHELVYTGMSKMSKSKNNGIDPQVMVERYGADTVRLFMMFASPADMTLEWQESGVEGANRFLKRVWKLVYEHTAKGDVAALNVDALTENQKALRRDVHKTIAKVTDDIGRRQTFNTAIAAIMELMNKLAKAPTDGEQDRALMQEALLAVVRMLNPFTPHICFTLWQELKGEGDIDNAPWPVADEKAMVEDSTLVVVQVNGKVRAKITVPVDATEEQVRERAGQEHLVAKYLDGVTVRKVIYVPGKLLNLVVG
test: Inhibition of Escherichia coli BL21(DE3) Leucyl-tRNA synthetase assessed as reduction in tRNA aminoacylation preincubated for 10 mins with Escherichia coli tRNA and 14C-labeled leucine followed by ATP addition by liquid scintillation counting method
particulars: read-out: Ki(app)
quantity-measured: pKi
# pKi: negative log10 of molar concentration; output just the value

Look up and state reported pKi for CC(C)C[C@H](N)C(=O)NS(=O)(=O)OC[C@H]1O[C@@H](n2cnc3c(N)nccc32)[C@H](O)[C@@H]1O
9.18

====

target: Serine--tRNA ligase (Escherichia coli (strain K12), UniProt P0A8L1)
Sequence (P0A8L1 whole entry): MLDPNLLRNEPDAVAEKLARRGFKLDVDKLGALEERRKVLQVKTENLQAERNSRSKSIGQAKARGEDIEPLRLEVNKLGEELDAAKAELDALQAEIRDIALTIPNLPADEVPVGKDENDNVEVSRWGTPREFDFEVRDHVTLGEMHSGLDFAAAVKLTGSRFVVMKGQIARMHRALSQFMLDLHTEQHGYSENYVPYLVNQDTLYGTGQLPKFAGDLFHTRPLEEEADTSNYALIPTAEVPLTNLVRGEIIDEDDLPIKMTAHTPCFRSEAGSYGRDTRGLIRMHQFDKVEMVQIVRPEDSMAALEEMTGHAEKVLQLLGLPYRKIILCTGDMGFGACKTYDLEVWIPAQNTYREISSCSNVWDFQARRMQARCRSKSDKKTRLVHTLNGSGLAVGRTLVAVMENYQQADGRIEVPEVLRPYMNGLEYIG
test: Inhibition of Escherichia coli BL21(DE3) Seryl-tRNA synthetase assessed as reduction in tRNA aminoacylation preincubated for 10 mins with Escherichia coli tRNA and 14C-labeled serine followed by ATP addition by liquid scintillation counting method
particulars: read-out: Ki(app)
quantity-measured: pKi
// returns pKi (minus log10 of molar concentration), number only

Supply recorded pKi for Nc1nccc2c1ncn2[C@@H]1O[C@H](COS(=O)(=O)NC(=O)[C@@H](N)CO)[C@@H](O)[C@H]1O here.
6.28

Quick one: give measured pKi for Nc1ncnc2c1ncn2[C@@H]1O[C@H](COS(=O)(=O)NC(=O)[C@@H](N)CO)[C@@H](O)[C@H]1O
9.74
